Cited source: patent US20110118131A1

- assayed system: T1, IL-1β (UniProt P01584 117-269)
- T1 construct: Antigen of XPA23
- protocol: Biacore, Fab periplasmic extract
reported metric: fold difference in affinity against the original

Input: If you can, please state the reported fold difference in affinity against the original value of XPA23 heavy chain M57T (Fab, V domains shown, Fab, periplasmic extract; also called C5A M57T) VH: EVQLLESGGGLVQPGGSLRLSCAASGFTFSKYFMFWVRQAPGKGLEWVSVISPSGGTTRYADSVKGRFTISRDNSKNTLYLQMNSLRAEDTAVYYCARVGYGGNSDYWGQGTLVTVSS VL: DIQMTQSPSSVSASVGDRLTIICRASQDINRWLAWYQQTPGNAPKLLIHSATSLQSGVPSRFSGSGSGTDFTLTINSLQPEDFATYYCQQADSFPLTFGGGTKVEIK .
Output: 0.06 fold

Input: If you can, please state the reported fold difference in affinity against the original value of XPA23 heavy chain I51G (Fab, V domains shown, Fab, periplasmic extract; also called C5A I51G) VH: EVQLLESGGGLVQPGGSLRLSCAASGFTFSKYFMFWVRQAPGKGLEWVSVGSPSGGMTRYADSVKGRFTISRDNSKNTLYLQMNSLRAEDTAVYYCARVGYGGNSDYWGQGTLVTVSS VL: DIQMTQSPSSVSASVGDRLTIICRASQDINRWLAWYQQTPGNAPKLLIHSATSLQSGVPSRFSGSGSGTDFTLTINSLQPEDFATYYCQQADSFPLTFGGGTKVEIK .
Output: 0.94 fold
